# Method description: basal S. cerevisiae growth modulation, no modifier, primary screen, OD600, strain BY4716, 24 h, basal condition (AID 1173)
# Condition set: OD600, 24 h, higher = more signal, called active from +8 up or from −8 down
Decide by z-score: equal to or exceeding -0.8 means Yes, less means No.

### Prompt Could you please find out whether COc1ccc(COC(=O)NN=C2C[C@@H](O)[C@@H](O)[C@@H]3[C@@H]4C(=O)N(c5cccc(Oc6ccccc6)c5)C(=O)[C@@H]4CC[C@H]23)cc1 has z-score that meets -0.8 or exceeds it?
### Response No

### Prompt Could you please find out whether C=CC[C@@H]1C=C[C@H](Oc2ccc(C)cc2)[C@@H](COC(=O)NCc2cccc3ccccc23)O1 has z-score that meets -0.8 or exceeds it?
### Response Yes

### Prompt Could you please find out whether CO[C@@H](C1CCCCC1)[C@@H](C)[C@H](OCc1cccc(Br)c1)[C@@H](C)CO has z-score that meets -0.8 or exceeds it?
### Response No

### Prompt Could you please find out whether O=C1CCCC=C1C(O)c1ccc([N+](=O)[O-])cc1 (stereo unspecified) has z-score that meets -0.8 or exceeds it?
### Response No

### Prompt Could you please find out whether CC(C)(C)N1C(=O)[C@H]2[C@H]3[C@H](O)[C@H](O)CC(=NOC[C@@H](O)COCc4ccco4)[C@@H]3CC[C@H]2C1=O has z-score that meets -0.8 or exceeds it?
### Response Yes

### Prompt Could you please find out whether CC(C)CON=C1C[C@@H](O)[C@@H](O)[C@@H]2[C@@H]3C(=O)N([C@@H](C)c4ccccc4)C(=O)[C@@H]3CC[C@@H]12 has z-score that meets -0.8 or exceeds it?
### Response Yes

### Prompt Could you please find out whether COC(OC)[C@@H](C)[C@H](OC)[C@@H](C)[C@H](OC)c1ccccc1 has z-score that meets -0.8 or exceeds it?
### Response No

====

// reported composite z-score for each item listed
# Method description: binders of probe aFSTL3 on microarray, primary screen, stem cell growth factor project, biochemical, small-molecule microarray, fluorescence 635/667 (AID 1064);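 note: measures binding of the biotinylated anti-FSTL3 antibody to printed compounds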
# Condition set: higher = more signal
Write the value as a bare number.

Solved entries:
structure_as_smiles=COC(=O)[C@H](Cc1ccccc1)NC(=O)[C@@H](C)CO recorded_result=0.503
structure_as_smiles=CC(CCN1CCc2nc(-c3ccccc3)c(-c3ccccc3)cc2C1)=NO[C@H](C)c1cn([C@H](CO)Cc2ccccc2)nn1 recorded_result=-0.11

From here, focus on the item given below.
### Prompt Sample CCOC(=O)CCN1C(=O)[C@H]2[C@H]3[C@H](O)[C@H](O)CC(=NOCC(C)C)[C@@H]3CC[C@H]2C1=O — what was its composite z-score?
### Response -0.784

====

# Method description: PSAC antagonists in infected red cells, primary screen, cell-based, P. falciparum Indochina, OD700, 18 h (AID 1157)
# Condition set: P. falciparum Indochina infected erythrocytes, osmotic lysis OD700, 18 h; higher = more signal, called active from +8 up or from −8 down
// reported z-score for each item listed
Write the value as a bare number.

Solved entries:
molecule=CC(=O)OC[C@H]1O[C@@H](ON=C(C)CCN2CCCCc3nc(C)c(C)cc32)[C@H](OC(C)=O)[C@@H](OC(C)=O)[C@@H]1OC(C)=O recorded_result=-1.5
molecule=CCCNC(=O)OC[C@H]1O[C@H](CCON=C[C@@H](NS(=O)(=O)c2ccc(C)cc2)[C@H](C)C=CCC(=O)OC)C=C[C@@H]1Oc1ccc(OC)cc1 recorded_result=0.441
molecule="COC(=O)[C@H](C)NC(=O)CCC1CC(OC(=O)NCCc2ccc(F)cc2)CC2(CCCC(COC(=O)NCCc3ccccc3OC)O2)O1 (stereo partly specified)" recorded_result=0.15

### Prompt Sample Cc1cc2c(nc1C)CCCCN2CC(O)CN1CCCc2nc(-c3ccc(Br)cc3)ccc21 (stereo unspecified) — what was its z-score?
### Response 0.148

### Prompt Sample CCOC(=O)CCN1C(=O)[C@H]2[C@H]3[C@H](O)[C@H](O)CC(=NOCC=C(C)CCC=C(C)C)[C@@H]3CC[C@H]2C1=O — what was its z-score?
### Response -0.014

### Prompt Sample CO[C@@H]1COC(=O)CC=C[C@H](C)[C@H](OC)COC(=O)[C@@H]2CCCN2C(=O)CC=C[C@H]1C — what was its z-score?
### Response 0.158

### Prompt Sample CO[C@@H](C1CCCCC1)[C@@H](C)[C@H](OCc1cccc(Br)c1)[C@@H](C)CO — what was its z-score?
### Response 0.957

### Prompt Sample O=C1[C@H]2[C@H]3[C@H](O)[C@H](O)CC(=NOC[C@@H](O)COCc4ccco4)[C@@H]3CC[C@H]2C(=O)N1C1CCCCC1 — what was its z-score?
### Response 0.329

====

# Method description: A549 lung cancer cell viability effects, profiling panel, resazurin fluorescence, 24 h, PK04 Diversity Set (AID 1171); note: test concentration not given here
# Condition set: higher = more signal, called active from +8 up or from −8 down
// reported z-score for each item listed
Write the value as a bare number.

compound=CC(=O)OC[C@H]1O[C@H](CC=NOC[C@@H](O)COCc2ccco2)C=C[C@@H]1OC(C)=O recorded_result=0.0719

### Prompt Sample COC(=O)[C@H](C)NC(=O)CCC1CC(OC(=O)NCc2ccc3c(c2)OCO3)CC2(CCCC(COC(=O)NCc3ccccc3)O2)O1 (some centres undefined) — what was its z-score?
### Response 0.409

### Prompt Sample O=C1C=C[C@@H](O)[C@@H]2[C@@H]3C(=O)N(Cc4ccc5c(c4)OCO5)C(=O)[C@@H]3CC[C@@H]12 — what was its z-score?
### Response -0.701

### Prompt Sample COC(=O)[C@@H]1CC[C@H](C)[C@@H](c2ccc(Br)cc2)N1 — what was its z-score?
### Response -0.284

====

# Method description: CREB reporter modulators without forskolin, primary screen, cell-based, PC12, CRE-LacZ reporter, unstimulated (AID 1145)
# Condition set: no forskolin, luminescence, 4.5 h, higher = more signal, called active from +8 up or from −8 down
Calls of active or inactive are those of the source.
// reported z-score for each item listed

compound="COC(=O)[C@H](C)NC(=O)CCC1CC(OC(=O)NCc2cccc3ccccc23)CC2(CCCC(COC(=O)NCCC(C)C)O2)O1 (some centres undefined)" experimental_endpoint=z-score recorded_result="-0.522 (inactive)"
compound=C=CC[C@@H]1C=C[C@H](Oc2ccc(C)cc2)[C@@H](COC(=O)NCc2cccc3ccccc23)O1 experimental_endpoint=z-score recorded_result="-0.527 (inactive)"
compound=CCOC(=O)CCN1C(=O)[C@H]2[C@@H]3C(=CC[C@H]2C1=O)C(=O)[C@H]1O[C@H]1[C@H]3O experimental_endpoint=z-score recorded_result="0.79 (inactive)"
compound="CCOC(=O)[C@H](Cc1ccccc1)NC(=O)CCC1CC(OC(=O)NCc2cccc3ccccc23)CC2(CCCC(COC(=O)NCC3CCCCC3)O2)O1 (some centres undefined)" experimental_endpoint=z-score recorded_result="-0.343 (inactive)"
compound=COC(=O)[C@@H]1CC[C@H](C)[C@@H](c2ccc(C)cc2)N1C(=O)c1ccc(C=NOC[C@@H](O)[C@H]2O[C@@H]3OC(C)(C)O[C@@H]3[C@H]2O)cc1 experimental_endpoint=z-score recorded_result="9.08 (active)"
compound=COc1ccc(-c2cnnc(CCCn3ccnc3-c3ccccc3)n2)cc1 experimental_endpoint=z-score recorded_result="1.37 (inactive)"

### Prompt Sample CO[C@@H]1C=CCC(=O)N[C@@H](C)C(=O)OC[C@@H](OC)[C@H](C)C=CCC(=O)OC[C@H]1C — what was its z-score?
### Response 0.876 (inactive)

### Prompt Sample O=C1C[C@@H](O)[C@@H](O)[C@@H]2[C@@H]3C(=O)N(C4CCCCC4)C(=O)[C@@H]3CC[C@@H]12 — what was its z-score?
### Response -0.0223 (inactive)

### Prompt Sample CCc1cc2c(nc1CC)CCN(CCC(C)=NOC[C@@H](C)[C@H](OCc1ccccc1)C(C)C)C2 — what was its z-score?
### Response 0.387 (inactive)

### Prompt Sample COc1ccc(OC[C@@H](CO)OC)cc1 — what was its z-score?
### Response 0.562 (inactive)

### Prompt Sample COc1cccc([C@H]2Oc3ccc(OC)cc3C(=NOCC[C@@H]3C=C[C@H](OC(C)=O)[C@@H](COC(C)=O)O3)[C@@H]2O)c1 — what was its z-score?
### Response 5.08 (inactive)

### Prompt Sample C=CC[C@@H]1C=CC(ON=C(C)C)[C@@H](CO)O1 (some centres undefined) — what was its z-score?
### Response -1.13 (inactive)

### Prompt Sample CO[C@H]1C[C@@H]2C[C@H](O)CC(CC(=O)O[C@@H](C=CCC(C)C)C[C@@H]3CC[C@H](C)[C@@H](C1)O3)O2 — what was its z-score?
### Response 2.64 (inactive)

Measured values drawn from PubChem BioAssay for this set.
